From: patent US8853406B2

- assaySummary: Chemical stability of Form I (HPLC and visual inspection after storage)
- Type: physicochemical
- conditionDescription: 50° C., 4 weeks
resultType: HPLC Sum of impurities (%)
Numeric only. Scale: %

So for Cc1cc(Nc2ccnc3c2CCC3O)ccc1NCCc1c[nH]c2c(C)cccc12 (stereo not shown) [Form I] , the logged HPLC Sum of impurities turned out to be 0.14

----------
- assaySummary: Chemical stability of Form I (HPLC and visual inspection after storage)
- Format: physicochemical
- conditionDescription: RT/75% RH, 4 weeks
resultType: HPLC Sum of impurities
Lab note: write values as number then unit, every time.

Entry under test: Cc1cc(Nc2ccnc3c2CCC3O)ccc1NCCc1c[nH]c2c(C)cccc12 (stereo not shown) [Form I] . Its HPLC Sum of impurities was 0.2%

----------
- assaySummary: Crystallographic stability of Form I (TGA, DSC, XRPD, IR after storage)
- Assay type: physicochemical
- conditionDescription: six weeks open, RT/<5% RH
resultType: TGA <225° C. (%)
Lab book: enter the figure in %, no units written.

Reported TGA <225° C. for Cc1cc(Nc2ccnc3c2CCC3O)ccc1NCCc1c[nH]c2c(C)cccc12 (stereo not shown) [Form I] was 0.31

----------
- assaySummary: Chemical stability of Form I (HPLC and visual inspection after storage)
- Type: physicochemical
- conditionDescription: 0.3da ICH light (1 week)
resultType: HPLC Sum of impurities (%)
Report only the number, with the unit % understood.

The compound listed as Cc1cc(Nc2ccnc3c2CCC3O)ccc1NCCc1c[nH]c2c(C)cccc12 (stereo not shown) [Form I] has a reported HPLC Sum of impurities of 0.18

----------
- assaySummary: Crystallographic stability of Form I (TGA, DSC, XRPD, IR after storage)
- Type: physicochemical
- conditionDescription: 0 days
resultType: TGA <225° C.
Remember to put the unit after the number in your answer.

Entry Cc1cc(Nc2ccnc3c2CCC3O)ccc1NCCc1c[nH]c2c(C)cccc12 (stereo not shown) [Form I] , TGA <225° C. reported as 0.19%

----------
- assaySummary: Crystallographic stability of Form I (TGA, DSC, XRPD, IR after storage)
- Format: physicochemical
- conditionDescription: six weeks open, 40° C./75% RH
resultType: TGA <175° C. (%)
Write it as a number; the unit % goes unstated.

TGA <175° C. recorded for this compound, Cc1cc(Nc2ccnc3c2CCC3O)ccc1NCCc1c[nH]c2c(C)cccc12 (stereo not shown) [Form I] , is 0.06
